System: MCF7 breast
Assay: NCI tumour cell line growth inhibition, 48 h
Value kind: TGI (µM)
Numbers only; they are read as µM.

Value lookup for TGI; key = CC(=O)Nc1ccc(/C=C/C(=O)c2ccccc2)cc1
13.9

Value lookup for TGI; key = CCCCOc1ccc(NC(=O)n2nc(N)c3ccccc32)cc1
32.3

Value lookup for TGI; key = CC(=O)c1c(SCCN2CCCC2)n(-c2ccccc2)c(=S)n(-c2ccccc2)c1=O
3.01

Value lookup for TGI; key = C=C(C)C1Cc2c(cc(OC)c3c(=O)c4cccc(O)c4oc23)O1 (configuration not stated)
17.4

Value lookup for TGI; key = O=[N+]([O-])c1ccccc1N=Nc1c(O)[nH]c2ccc(Br)cc12
59.9

Value lookup for TGI; key = COC(=O)C1=C(C(=O)OC)C(Cc2ccccc2)(OO)OC1=O (configuration not stated)
53.9

====

System: SK-OV-3 ovarian
Test: NCI tumour cell line growth inhibition, 48 h; in the data active = GI50 below about 0.43 µM; inactive = the rest
Valid outcomes are listed here; reply with one: yes for active, no for inactive

Tell me the assay call for CCC[CH2][Sn]([CH2]CCC)([O]C(=O)c1cc(F)ccc1F)[O][Sn]([CH2]CCC)([CH2]CCC)[O]C(=O)c1cc(F)ccc1F please.
no

Tell me the assay call for O=C1C2C(C(=O)[N]1[Hg][c]1cccs1)C1(Cl)C(Cl)=C(Cl)C2(Cl)C1(Cl)Cl (stereo not given) please.
no

Tell me the assay call for COc1cccc(C2C3=C(COC3=O)N(CCO)c3cc(OC)ccc32)c1 (stereo not given) please.
yes

Tell me the assay call for Cn1cc(C2=C(c3cccc(N)c3)C(=O)NC2=O)c2ccccc21 please.
no

Tell me the assay call for CC[O-].CC[O-].O=C([CH-]C(=O)c1cccnc1)c1ccccc1.O=C([CH-]C(=O)c1cccnc1)c1ccccc1.[Ti+4] please.
no

====

Test system: KM12 colon
Experiment: NCI tumour cell line growth inhibition, 48 h
Value kind: TGI

Value lookup for TGI; key = Clc1ccc(/C=C/c2cc(N3CCOCC3)c3cc(Cl)c(Cl)cc3n2)cc1
> 100 µM

Value lookup for TGI; key = O=c1cc(-c2ccc(O)cc2)n(C2CC2)c2ccccc12
16.2 µM

Value lookup for TGI; key = N=C(N)c1ccc(OCCOCCOc2ccc(C(=N)N)cc2)cc1
> 100 µM

====

Kindly supply the reported TGI values for the records listed here.
Test system: U251 CNS
Experiment: NCI tumour cell line growth inhibition, 48 h

Value lookup for TGI; key = O=c1cc(-c2ccc(O)cc2)n(C2CC2)c2ccccc12
21.6 µM

Value lookup for TGI; key = Cn1ccc(C(=O)N2CCSC2=S)c(OCc2ccccc2)c1=O
> 100 µM

Value lookup for TGI; key = CC(C)(C)OC(=O)CC(NC(=O)OC(C)(C)C)C(=O)N[C@@H]1CCCC[C@H]1C(=O)OCc1ccccc1 (stereo partly drawn)
61.4 µM

Value lookup for TGI; key = COC(=O)C1CCOC(C)N1C(=O)OC(C)(C)C (stereo not drawn)
> 100 µM

Value lookup for TGI; key = Cc1ccc(S(=O)(=O)n2c3c(c4ccccc42)CCN2C(=O)C(S(=O)(=O)c4ccccc4)=CCC32)cc1 (stereo not drawn)
0.404 µM

Value lookup for TGI; key = Cn1c(-c2cccs2)cc(-c2ccccc2)c1-c1cccs1
> 100 µM

Value lookup for TGI; key = COc1cc(/C=C2/SC(c3ccccc3)N(c3cccc(Cl)c3)C2=O)cc(OC)c1OC (stereo not drawn)
86.8 µM

Value lookup for TGI; key = Cc1nc(-c2ccccc2)c(Cc2ccccc2O)c(=O)[nH]1
> 100 µM

Value lookup for TGI; key = COC(=O)CC1C(COC(C)=O)OC(n2cc(C)c(=O)[nH]c2=O)C1OC(C)=O (stereo not drawn)
> 100 µM

Value lookup for TGI; key = CN(C)CCN(C)CC1COC(C)(C)O1 (stereo not drawn)
> 100 µM

Value lookup for TGI; key = CCOC(=O)c1c(-c2ccccc2)oc(-c2ccccc2)c1C(=O)OCC
> 100 µM

Value lookup for TGI; key = Clc1ccc(/C=C/c2cc(N3CCOCC3)c3cc(Cl)c(Cl)cc3n2)cc1
> 100 µM

Value lookup for TGI; key = CC(C)CCC[C@@H](C)[C@H]1CC[C@H]2[C@@H]3CC[C@H]4C[C@H](N)CC[C@]4(C)[C@H]3CC[C@]12C
43.8 µM

Value lookup for TGI; key = CN(C)CCC(O)(c1ccccc1)C(O)(CCN(C)C)c1ccccc1 (stereo not drawn)
> 100 µM

Value lookup for TGI; key = COc1ccc2c(c1)C(=O)N1CCOC1C2C(=O)O (stereo not drawn)
> 100 µM

Value lookup for TGI; key = CCN(CC)CCCC(C)Nc1ccnc2cc3ccccc3cc12 (stereo not drawn)
42.1 µM

Value lookup for TGI; key = CC(C)c1c(C(=O)Nc2ccccc2)c(-c2ccccc2)c(-c2ccc(F)cc2)n1CC[C@@H]1CC=CC(=O)O1
3.17 µM

Value lookup for TGI; key = O=S1(=O)C(c2ccccc2)C(N2CCCCC2)C1C1CC2c3ccccc3C1c1ccccc12 (stereo not drawn)
> 100 µM

Value lookup for TGI; key = CN(C)Cc1cc(N=Nc2cccc(Cl)c2)ccc1O
33.1 µM

Value lookup for TGI; key = COc1cc2c(c(O)c1OC)C(O)C1CCC(=O)N1C2c1cccc2ccccc12 (stereo not drawn)
> 100 µM

Value lookup for TGI; key = CCCN1CC=C(c2cc(C(=O)OCC)[nH]c2-c2cc(C)no2)C1=O
> 100 µM

Value lookup for TGI; key = Cc1cc2cc3cc(C)c(N(C)C)cc3[n+](C)c2cc1N(C)C
21.2 µM

Value lookup for TGI; key = Cn1c(N)c(C(N)=O)[nH]c1=S
> 100 µM

Source: PubChem BioAssay (NCI)
